System: DU-145 prostate
procedure.summary: NCI tumour cell line growth inhibition, 48 h
reported.metric: TGI

stdin: Give the measured TGI of COc1cc2ncn(-c3cc(OCc4ccccc4C(F)(F)F)c(C(N)=O)s3)c2cc1OC .
stdout: 0.407 µM

stdin: Give the measured TGI of CCN(CC)c1ccc(/C=N/NC(=O)Cc2ccc(Nc3ccnc(C(F)(F)F)c3)cc2)c(O)c1 .
stdout: > 100 µM

stdin: Give the measured TGI of CCOc1ccc2nc(NC(=O)C(=O)C3C(=O)C(CC4C(=O)c5ccccc5C4=O)C(=O)CC3(C)C)sc2c1 (stereo unspecified) .
stdout: > 100 µM

stdin: Give the measured TGI of Cc1ccc(C2=CC(=O)/C(=C\C(=O)c3ccc(Br)cc3)O2)c(C)c1 .
stdout: > 69.5 µM

stdin: Give the measured TGI of CCCN1C(=O)/C(=C/c2ccc(SC(F)(F)F)cc2)SC1=Nc1ccc(OC)cc1 .
stdout: > 50 µM

###

System: TK-10 renal
procedure.summary: NCI tumour cell line growth inhibition, 48 h
reported.metric: TGI

Use these answered entries as a reference point.
CC1(C)CC(O)CC(C)(C)N1O | > 100 µM
O=c1cc(-c2cccc(OC(F)(F)F)c2)[nH]c2ccc(N3CCCC3)cc12 | 6.79 µM
COCN1C(=O)[C@@H]2CCCN2C(=O)c2ccc(N)cc21 | > 100 µM
CSc1c(C(C)=O)c(O)n(-c2ccc(C)cc2)c(=O)c1C#N | > 100 µM
S=c1ncc(-c2cncc(-c3cnc(=S)[nH]c3)n2)c[nH]1 | > 100 µM
CC[C@H](C)[C@H](NC(=O)C12C3C4C1C1C2C3C41NC)C(=O)N(C)[C@H](C[C@@H](OC(C)=O)c1nc(C(=O)N[C@@H](Cc2ccccc2)C[C@H](C)C(=O)OC)cs1)C(C)C (some centres undefined) | > 14.3 µM
COc1ccc2nc3ccccc3c(NCCNCCO)c2c1 | 9.96 µM
COc1ccc(/C=C/C(=O)c2c(-c3ccccc3)nn(C)c(=O)c2N2CC2C)cc1 (centres undefined) | > 100 µM

stdin: Give the measured TGI of O=C1/C(=C/c2ccc(Cl)cc2)CCC1CNc1ccc(Cl)cc1 (centres undefined) .
stdout: 21.8 µM

stdin: Give the measured TGI of CCSC[C@@H]1C[C@](O)(c2ccccc2)[C@@H](c2ccccc2)O1 .
stdout: > 100 µM

###

Reported TGI values for the following compounds.
System: ACHN renal
procedure.summary: NCI tumour cell line growth inhibition, 48 h

Use these answered entries as a reference point.
O=S(=O)(c1ccccc1)N1CCCC(c2ccccc2)CC1 (stereo unspecified) | > 100 µM
CC(=O)c1csc2c1C(=O)c1ccccc1C2=O | 4.57 µM
C=CCOCC1C2CCC3(OCCO3)C21 (stereo unspecified) | > 100 µM
Cc1ccc(S(=O)(=O)N/N=C2\C=CC3(CC2)C(=O)N(I)c2ccccc23)cc1 (stereo unspecified) | > 100 µM
COC(=O)CC1(O)C(=O)OCc2c1cc1n(c2=O)Cc2c-1nc1ccccc1c2OC (stereo unspecified) | 1.02 µM

stdin: Give the measured TGI of CCCC1C[C@H]2CCCCN2[C@H]2CCCN12 (stereo partly specified) .
stdout: > 100 µM

stdin: Give the measured TGI of NC(=NCCCCCCN=C(N)/N=C(\N)Nc1ccc(Cl)cc1)/N=C(\N)Nc1ccc(Cl)cc1 .
stdout: 8.36 µM

stdin: Give the measured TGI of COC1OC2COC(=O)c3cc(O)c(O)c(O)c3-c3c(cc(O)c(O)c3O)C(=O)OC2C(O)C1O (stereo unspecified) .
stdout: > 100 µM

stdin: Give the measured TGI of CC(=O)CCC1(c2ccccc2)OC(=O)C(C#N)=C1c1ccccc1 (stereo unspecified) .
stdout: > 100 µM

stdin: Give the measured TGI of Cc1ccc(/C=c2\cc3oc(=O)c4cccc(c4-3)c2=O)cc1 .
stdout: > 100 µM

stdin: Give the measured TGI of COc1ccc2nc3ccccc3c(NCCNCCO)c2c1 .
stdout: 21.1 µM

###

Tested on: UACC-62 melanoma
procedure.summary: NCI tumour cell line growth inhibition, 48 h
Reported TGI values for the following compounds.

Use these answered entries as a reference point.
CCCC1C[C@H]2CCCCN2[C@H]2CCCN12 (stereo partly specified) | > 100 µM
Oc1c(Br)cc2c(c1Br)-c1c(c(O)c3c4c1=NCCC=4C=N3)NCC2 | 11.4 µM
C=CCC(N[C@@H](CO)c1ccccc1)c1ccc2ccccc2n1 (stereo partly specified) | > 100 µM
CCOP1(=O)CC(C)=C(Cl)C(OC)C1 (stereo unspecified) | > 100 µM
Nc1nc(Cl)c2ncn(CCCC(c3ccccc3)P(=O)(O)O)c2n1 (stereo unspecified) | > 100 µM
CC1CC(=O)N(N(C)C)C2(C#N)C(=O)N=C(N)C12C#N (stereo unspecified) | > 100 µM

stdin: State its TGI on UACC-62 melanoma: Cc1nn2c(=O)c([N+](=O)[O-])c(/C=C/c3ccc(F)cc3)nc2s1
stdout: 17.5 µM

stdin: State its TGI on UACC-62 melanoma: Cc1ccc(S(=O)(=O)N/N=C2\C=CC3(CC2)C(=O)N(I)c2ccccc23)cc1 (stereo unspecified)
stdout: > 100 µM

###

System: SK-MEL-5 melanoma
procedure.summary: NCI tumour cell line growth inhibition, 48 h
Record True whenever TGI is at 20 µM or higher; record False when lower.

stdin: Dear colleague, could you confirm whether CSc1c(C(C)=O)c(O)n(-c2ccc(C)cc2)c(=O)c1C#N has TGI at or above 20 µM?
stdout: True

stdin: Dear colleague, could you confirm whether CC(=O)O[C@H]1[C@@H](N2CCOCC2)C[C@H]2[C@@H]3CC=C4C[C@@H](N5CCCC5)CC[C@]4(C)[C@H]3CC[C@@]21C has TGI at or above 20 µM?
stdout: True

stdin: Dear colleague, could you confirm whether O=c1cc(-c2cccc(OC(F)(F)F)c2)[nH]c2ccc(N3CCCC3)cc12 has TGI at or above 20 µM?
stdout: False

stdin: Dear colleague, could you confirm whether CC(C)(Oc1ccc(-c2cccc3ccccc23)cc1)C(=O)O has TGI at or above 20 µM?
stdout: True

stdin: Dear colleague, could you confirm whether O=[N+]([O-])c1cccc(/C=N/Nc2ccc3ccccc3n2)c1O has TGI at or above 20 µM?
stdout: False

stdin: Dear colleague, could you confirm whether Cc1ccc(-c2nc(NCCOCCOCCN)nc(N3CCN(c4ccccn4)CC3)n2)cc1 has TGI at or above 20 µM?
stdout: True

stdin: Dear colleague, could you confirm whether N#C[S-].[La+3].c1ccc(-c2ccccn2)nc1.c1ccc(-c2ccccn2)nc1.c1ccc(-c2ccccn2)nc1 has TGI at or above 20 µM?
stdout: True

stdin: Dear colleague, could you confirm whether Cc1nn2c(=O)c([N+](=O)[O-])c(/C=C/c3ccc(F)cc3)nc2s1 has TGI at or above 20 µM?
stdout: False

###

Test system: DU-145 prostate
procedure.summary: NCI tumour cell line growth inhibition, 48 h
Record t whenever TGI is at 30 µM or higher; record f when lower.

Study these solved cases before continuing.
CNC(=O)CCN1CCN(CC/C=C2\c3ccccc3Sc3ccc(Cl)cc32)CC1 | f
Cc1ccc(NCCNCC(C)(C)O)c2c(=O)c3ccc(Cl)cc3sc12 | f

stdin: Dear colleague, could you confirm whether O=c1ccc(N=Nc2ccccc2)ccc1O has TGI at or above 30 µM?
stdout: t

stdin: Dear colleague, could you confirm whether N=C(N)c1ccc2oc3ccc(C(=N)N)cc3c(=O)c2c1 has TGI at or above 30 µM?
stdout: t

stdin: Dear colleague, could you confirm whether CC1OC(OC2C(O)CC(OC3C(O)CC(OC4CCC5(C)C(CCC6C5CCC5(C)C(C7=CC(=O)OC7)C(O)CC65O)C4)OC3C)OC2C)CC(O)C1O (stereo not given) has TGI at or above 30 µM?
stdout: f

stdin: Dear colleague, could you confirm whether Cc1c(C#N)c2nnn(-c3cccc(Cl)c3)c(=O)n2c1-c1ccccc1 has TGI at or above 30 µM?
stdout: t

stdin: Dear colleague, could you confirm whether COc1ccc(OC)c2c(C(C)=O)cccc12 has TGI at or above 30 µM?
stdout: t

stdin: Dear colleague, could you confirm whether O=C(O)CNc1ccc2c(c1)Cc1cc(Br)ccc1-2 has TGI at or above 30 µM?
stdout: t

stdin: Dear colleague, could you confirm whether Cc1ccc(S(=O)(=O)OC[C@@]2(C)CC[C@]3(C)CC[C@]4(C)C(=C3C2)C=C[C@@H]2[C@@]3(C)CCCNC(C)(C)[C@@H]3CC[C@]24C)cc1 has TGI at or above 30 µM?
stdout: f

###

Tested on: A549 NSCLC
procedure.summary: NCI tumour cell line growth inhibition, 48 h
Reported TGI values for the following molecules.

Use these answered entries as a reference point.
O=[N+]([O-])c1cccc(/C=N/Nc2ccc3ccccc3n2)c1O | > 70.8 µM
Cc1nc2c(C)ccc([N+](=O)[O-])c2c(NCCCN(C)C)c1C | > 100 µM
CSc1c(C(C)=O)c(O)n(-c2ccc(C)cc2)c(=O)c1C#N | > 100 µM
CCOC(=O)[C@@]12C[C@](/C=C/OC)(O[Si](C)(C)C)[C@@]13c1cc(OC)c(OC)cc1CCN3C(=O)C2=O | > 100 µM

stdin: Give the measured TGI of CCOC(=O)C1=C(O)CC(=O)N=C1N1CCCC1 .
stdout: > 100 µM
